- assay target: Carbonic anhydrase 2 (Homo sapiens)
- assay protocol: Inhibition of human carbonic anhydrase 2 expressed in Escherichia coli BL21 D3 strain using p-nitrophenyl acetate as substrate by UV/visible spectrophotometry
pIC50: −log10 of the molar value.
assay readout: pIC50

Summary for this compound, CCCS(=O)(=O)n1cc(/C=C/C(=O)c2ccncc2)c2ccccc21 : pIC50 is < 4.00
